Test: endothelial E-selectin expression blockers – imaging, HUVEC, immunofluorescence, MLSMR starter and 10KST1 sets, primary screen (AID 487);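 note: signal is fraction of cell area covered by stained E-selectin grains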
Conditions: HUVEC TNFalpha-induced E-selectin immunofluorescence imaging, at 2 µM; stronger effect = higher value
So basically: inhibition at -70% or higher? That is y. Lower than -70%? That is n.

Use the examples below as a reference point.
O=C(Cc1c[nH]c2ccccc12)N1CCc2ccccc21 :: y
CC1=C(C(=O)NCc2ccccn2)C2(CCC(C)CC2)OC1=O (stereo not drawn) :: y
Cc1cc(S(=O)(=O)N2CCN(c3ccccc3C)CC2)ccc1F :: n
COc1ccc(C2CC(c3ccc(Cl)cc3)Nc3nc(NC(=O)c4ccco4)nn32)cc1 (stereo not drawn) :: y
CCc1cc2c(=O)c(-c3nc4ccccc4[nH]3)coc2c(CN2CCC(C)CC2)c1O :: y
CCN(CC)C(=O)Cn1ncc2c1-c1ccccc1OC2 :: y

Ask: API: above_or_equal(metric=inhibition, cutoff=-70%) for item Cc1ccc(S(=O)(=O)Cn2nnnc2CN(Cc2ccco2)Cc2cccs2)cc1
Reply: n

Ask: What do we get for Cn1cccc1Cc1nnc(SCC(=O)Nc2ccccc2F)n1CCc1ccccc1 ?
Reply: y

Ask: What do you have for CCc1cc2ccc(C)cc2nc1SCC(=O)N1CCN(C(=O)c2ccco2)CC1 ?
Reply: y

Ask: Could you do the same for Cc1ccc2nc(C3CCN(CC(=O)N4CCCCCC4)CC3)[nH]c2c1 , please?
Reply: y

Ask: Check O=C(C1CCCO1)N1CCN(S(=O)(=O)c2ccccc2)CC1 (stereo not drawn) too.
Reply: y

---

Biological target: Muscarinic acetylcholine receptor M4 (Homo sapiens)
Experiment: M4-linked GIRK flux change, two-sided – cell-based, HEK293 M4/GIRK, thallium flux, BTC-AM, M4 allosteric agonist project, primary screen (AID 625);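 note: thallium influx through GIRK channels coupled to M4 in HEK293 cells with BTC-AM dye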
Conditions: at 10 µM, actives lie on both sides
Categories are assigned from the measured fluorescence slope using these intervals: c1: < 0.005; c2: ≥ 0.005 and < 0.006; c3: ≥ 0.006

Cc1cc(N2C(=O)C3C4C=CC(C4)C3C2=O)ccc1Br (stereo unspecified) :: c3
Cc1cc(NC(=O)C2CCCC2)nc2c1c(=O)oc1ccccc12 :: c3
COc1ccc(NS(=O)(=O)c2c(C)[nH]c(=O)[nH]c2=O)c(OC)c1 :: c2
O=C(CSc1nc(C2CCCCC2)n(-c2ccccc2)n1)NCCN1C(=O)CSC1=O :: c3
Cc1csc2nc(CSc3nc4ccccc4o3)c(Br)n12 :: c2

We now examine a further compound.
Ask: Assign a category based on measured fluorescence slope for Cc1c2c(nc3nc4ccccc4n13)CC(C)(C)CC2=O and give only the class name.
Reply: c1

---

Listing: nuclei count of selected molecules
Experiment: reduction of polyQ htt aggregates in cells – imaging, exon1htt(103Q)mCFP cells, high-content imaging, primary screen (AID 483);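 note: compound exposure lasted 3 days before fixation; percent of the per-plate median nuclei count of sample wells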
Details: exon1htt(103Q)mCFP cell line, aggregate imaging, at 2 µM; measured here: cell count, toxicity
Provide the reading as a plain figure in %.

CCOC(=O)c1c2n(c3ccc(O)cc13)CCCCC2 :: 107
COc1cc(C(=O)Nc2cc(-c3ccccc3)[nH]n2)cc(OC)c1OC :: 94.3
Cc1cc(NC(=O)CS(=O)(=O)c2cn(Cc3ccccc3Cl)c3ccccc23)no1 :: 98.5
CCOC(=O)c1c(NCc2ccc3c(c2)OCO3)c2ccccc2[nH]c1=O :: 94.1
O=C(CSc1nnnn1C1CCCC1)NCc1ccc2c(c1)OCO2 :: 87.9

Ask: Fill blank: measured nuclei count of the molecule CC(=O)NCCc1ccc(S(=O)(=O)NCc2ccc3c(c2)OCO3)cc1 is ____.
Reply: 89.5
